- assay_system: T1, FZD3 cysteine-rich domain (CRD), MYC-tagged and GPI-anchored on CHO cells (human, UniProt Q9NPG1 24-150, GPI anchor)
- T1 construct: domain: cysteine-rich domain (CRD); also called FZD3 CRD; CHO-myc-FZDGPI; not shown: MYC tag and GPI anchor signal
- T1 sequence (looked up): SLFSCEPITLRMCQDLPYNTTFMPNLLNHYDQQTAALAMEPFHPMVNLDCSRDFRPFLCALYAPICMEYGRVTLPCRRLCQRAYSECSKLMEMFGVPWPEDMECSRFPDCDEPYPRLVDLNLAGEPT
- measurement_protocol: flow cytometry, CHO-CRD cells;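 further: flow cytometry of Fab binding to CHO cells overexpressing a Frizzled CRD, with binding defined as median fluorescence over twice that of CHO cells lacking any Frizzled CRD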
measured_property: median fluorescence
Output: the number by itself.

The cases that follow already have their median fluorescence on record.
binder	median fluorescence
Fab-2923 (Fab, V domains shown, Fab; also called Fv-2923) VH: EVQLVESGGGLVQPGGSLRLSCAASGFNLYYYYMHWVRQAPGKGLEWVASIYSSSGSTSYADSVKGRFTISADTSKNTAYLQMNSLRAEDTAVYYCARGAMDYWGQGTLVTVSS VL: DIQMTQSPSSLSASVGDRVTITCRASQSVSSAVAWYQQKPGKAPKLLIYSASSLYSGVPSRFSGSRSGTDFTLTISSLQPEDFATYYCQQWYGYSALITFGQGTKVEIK	6.67
Fab-2912 (Fab, V domains shown, Fab; also called Fv-2912) VH: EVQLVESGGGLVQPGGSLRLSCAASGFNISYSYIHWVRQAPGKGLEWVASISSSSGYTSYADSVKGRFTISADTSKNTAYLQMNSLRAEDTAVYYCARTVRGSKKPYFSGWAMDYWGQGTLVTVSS VL: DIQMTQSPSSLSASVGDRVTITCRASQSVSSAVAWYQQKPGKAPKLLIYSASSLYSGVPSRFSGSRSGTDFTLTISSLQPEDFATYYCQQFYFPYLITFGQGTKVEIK	4.61
Fab-2919 (Fab, V domains shown, Fab) VH: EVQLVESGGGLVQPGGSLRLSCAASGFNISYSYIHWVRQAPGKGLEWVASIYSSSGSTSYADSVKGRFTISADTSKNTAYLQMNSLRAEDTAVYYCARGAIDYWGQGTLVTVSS VL: DIQMTQSPSSLSASVGDRVTITCRASQSVSSAVAWYQQKPGKAPKLLIYSASSLYSGVPSRFSGSRSGTDFTLTISSLQPEDFATYYCQQWYSSGHVLITFGQGTKVEIK	3.96
Fab-2930 (Fab, V domains shown, Fab; also called Fv-2930) VH: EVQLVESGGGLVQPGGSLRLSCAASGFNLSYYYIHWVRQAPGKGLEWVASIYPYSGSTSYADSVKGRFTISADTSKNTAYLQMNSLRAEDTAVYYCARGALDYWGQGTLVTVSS VL: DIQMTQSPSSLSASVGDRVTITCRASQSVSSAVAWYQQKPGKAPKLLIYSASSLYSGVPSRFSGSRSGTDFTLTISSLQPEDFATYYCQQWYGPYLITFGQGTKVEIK	6.26
Fab-2913 (Fab, V domains shown, Fab; also called Fv-2913) VH: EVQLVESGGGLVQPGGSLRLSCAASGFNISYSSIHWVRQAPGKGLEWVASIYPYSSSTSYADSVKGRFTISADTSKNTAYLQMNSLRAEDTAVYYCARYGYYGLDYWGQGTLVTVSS VL: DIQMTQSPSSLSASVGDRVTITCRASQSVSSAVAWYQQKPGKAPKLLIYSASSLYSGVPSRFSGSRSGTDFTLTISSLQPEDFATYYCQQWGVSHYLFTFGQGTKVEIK	4.61

Sample Fab-2932 (Fab, V domains shown, Fab; also called Fv-2932) VH: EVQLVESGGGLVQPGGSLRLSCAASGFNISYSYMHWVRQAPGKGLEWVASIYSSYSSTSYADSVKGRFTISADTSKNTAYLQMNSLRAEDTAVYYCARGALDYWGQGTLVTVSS VL: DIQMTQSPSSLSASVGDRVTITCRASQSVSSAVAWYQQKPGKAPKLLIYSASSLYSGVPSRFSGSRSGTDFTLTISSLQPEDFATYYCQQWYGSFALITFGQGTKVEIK ; median fluorescence observed: 3.85

Sample Fab-2908 (Fab, V domains shown, Fab; also called Fv-2908) VH: EVQLVESGGGLVQPGGSLRLSCAASGFNFSSSSIHWVRQAPGKGLEWVAYIYPSYSYTYYADSVKGRFTISADTSKNTAYLQMNSLRAEDTAVYYCARAYYGHFHAMDYWGQGTLVTVSS VL: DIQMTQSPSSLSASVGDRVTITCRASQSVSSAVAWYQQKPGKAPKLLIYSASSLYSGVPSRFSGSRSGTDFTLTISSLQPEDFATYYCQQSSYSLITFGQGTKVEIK ; median fluorescence observed: 3.22

Sample Fab-2906 (Fab, V domains shown, Fab; also called Fv-2906) VH: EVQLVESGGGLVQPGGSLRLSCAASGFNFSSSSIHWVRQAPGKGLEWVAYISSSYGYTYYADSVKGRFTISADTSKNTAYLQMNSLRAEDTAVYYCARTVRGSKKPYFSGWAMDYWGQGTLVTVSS VL: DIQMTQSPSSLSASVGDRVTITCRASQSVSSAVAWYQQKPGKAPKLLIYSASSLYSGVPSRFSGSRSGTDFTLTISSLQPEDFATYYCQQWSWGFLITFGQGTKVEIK ; median fluorescence observed: 4.03

Sample Fab-2928 (Fab, V domains shown, Fab; also called Fv-2928) VH: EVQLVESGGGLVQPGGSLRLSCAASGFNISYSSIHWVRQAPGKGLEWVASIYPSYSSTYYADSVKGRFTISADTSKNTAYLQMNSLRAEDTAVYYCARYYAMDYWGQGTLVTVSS VL: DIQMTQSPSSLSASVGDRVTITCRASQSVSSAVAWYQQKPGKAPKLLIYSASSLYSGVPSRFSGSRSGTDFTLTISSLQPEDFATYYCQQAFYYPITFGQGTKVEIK ; median fluorescence observed: 4.37

Sample Fab-2926 (Fab, V domains shown, Fab; also called Fv-2926) VH: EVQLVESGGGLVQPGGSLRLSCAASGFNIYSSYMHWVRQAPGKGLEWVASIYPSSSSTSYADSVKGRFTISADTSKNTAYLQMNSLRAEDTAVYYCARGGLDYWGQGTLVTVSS VL: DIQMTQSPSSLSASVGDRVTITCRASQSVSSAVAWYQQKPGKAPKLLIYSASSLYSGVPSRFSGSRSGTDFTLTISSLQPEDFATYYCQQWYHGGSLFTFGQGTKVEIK ; median fluorescence observed: 4.61
